src = patent US20090137572A1

Target: protein kinases (panel of Table 4) (Homo sapiens, UniProt P24941)
Construct: other: kinase CDK2A; ATP 100 μM; other: kinase CDK2E
Assay: Kinase selectivity profile, kinase inhibition IC50 (Table 4), ATP 100 μM
Type: biochemical
Conditions: kinase CDK2E, read-out: Kinase inhibition IC50, CDK2E
PROPERTY LABEL: IC50 (nM)

CCNc1nc(C)c(-c2ccnc(Nc3ccc(N4CCNCC4)cc3)n2)s1 [Compound 59]    150

[a] CNc1nc(C)c(-c2ccnc(Nc3cccc(S(C)(=O)=O)c3)n2)s1 [Compound 27]
[b] COCCNS(=O)(=O)c1cccc(Nc2nccc(-c3sc(N)nc3C)n2)c1 [Compound 55]
[c] CNc1nc(C)c(-c2ccnc(Nc3ccc(C)c(S(=O)(=O)N4CCOCC4)c3)n2)s1 [Compound 37]
Problem: Kindly order the items shown according to IC50, from the highest value down. Provide the labels, sequenced as the question asks.
Solution: c, b, a
(c: 3000 nM, b: 270 nM, a: 3 nM)
